System: NCI/ADR-RES
runDescription: NCI tumour cell line growth inhibition, 48 h
Activity calls are given as the source filed them. Rule as the data show it: active = GI50 up to about 1.1 µM and inactive = higher.
Thanks in advance; please answer with one of these: TRUE = active, FALSE = inactive

A selection of reference data follows.
molecule	labelValue
Cc1ccc2c(c1)[n+]([O-])c(N)n[n+]2[O-]	FALSE
CC(CC(=O)N1C2CC3CCC2(CS1(=O)=O)C3(C)C)[Si](C)(C)C (stereo unspecified)	FALSE
COC(=O)CC1CN(C(=O)OCc2ccccc2)C(C)(C)O1 (stereo unspecified)	FALSE
CC(=O)N[C@@H](Cc1ccc(O)cn1)C(=O)NC1CCCCC1	FALSE

-- ask # outcome recorded in this test, key = N#C/C(=C\c1ccc([N+](=O)[O-])o1)c1n[nH]c(Cc2ccccc2)n1
-- reply FALSE

-- ask # outcome recorded in this test, key = C=C1c2nc3ccccc3n2C=C(c2ccc(Cl)cc2)N1c1ccc(OCCN2CCCCC2)cc1
-- reply FALSE

-- ask # outcome recorded in this test, key = COC(=O)C[C@H]1[C@]2(C)C3=C(C)[C@H](c4ccoc4)CC3O[C@@H]2[C@@H]2OC(=O)[C@]3(C)CCC(=O)[C@@]1(C)[C@@H]23 (stereo partly specified)
-- reply FALSE

-- ask # outcome recorded in this test, key = C/C(Cl)=N\OC(=O)Nc1ccc([N+](=O)[O-])cc1
-- reply FALSE

-- ask # outcome recorded in this test, key = C#C/C=C\CCCC/C=C\C#CC#CCCCC#CC#C[C@H](COS(=O)(=O)O)OS(=O)(=O)O
-- reply FALSE

----------
Test system: HL-60
runDescription: NCI tumour cell line growth inhibition, 48 h
Activity calls are given as the source filed them. Rule as the data show it: active = GI50 up to about 1.1 µM and inactive = higher.
Thanks in advance; please answer with one of these: 1.0 (active), 0.0 (inactive)

A selection of reference data follows.
compound	labelValue
COc1ccc(OC(C(=O)O)C(C)C)c2c1CCCC2=O (centres undefined)	0.0
CCOC(=O)C1=C(N)N(c2ccccc2)/C(=C(/C#N)c2nc3ccccc3[nH]2)S1	0.0
Cc1ccc(S(=O)(=O)C2=Cc3ccccc3C2(O)c2ccccc2)cc1 (centres undefined)	0.0
C[C@H]1[C@H](C)CC[C@]2(C(=O)OC3OC(CO)C(O)C(O)C3O)CC[C@]3(C)C(=CC[C@@H]4[C@@]5(C)C[C@@H](O)[C@@H]6OC(=O)c7cc(O)c(O)c(O)c7-c7c(cc(O)c(O)c7O)C(=O)OC[C@]6(CO)[C@@H]5CC[C@]43C)[C@H]12 (some centres undefined)	0.0
C#C/C=C\CCCC/C=C\C#CC#CCCCC#CC#C[C@H](COS(=O)(=O)O)OS(=O)(=O)O	0.0
CC1=C(c2ccccc2)NC(=S)C(C)C(c2ccccc2)=N1 (centres undefined)	0.0

-- ask # outcome recorded in this test, key = O=C1CCSSCCC(=O)NCCN1
-- reply 0.0

-- ask # outcome recorded in this test, key = Clc1ccc2c(NCCCCN3OC3c3ccccc3)ccnc2c1 (centres undefined)
-- reply 1.0

-- ask # outcome recorded in this test, key = Cc1nc(=O)c2cc(CN(C)c3ccc(C(=O)N[C@@H](CCC(=O)O)C(=O)O)s3)ccc2[nH]1 [RALTITREXED]
-- reply 0.0

----------
# key: entry, value: GI50
System: ACHN
runDescription: NCI tumour cell line growth inhibition, 48 h
Active and inactive are the calls of the source. Rule as the data show it: active = GI50 up to about 1.1 µM and inactive = higher.

Example entries begin here.
COc1cc(C[C@@H](C)N)cc(OC)c1 > 100 µM (inactive)
N#C/C(C(=O)Nc1ccc(Cl)cc1)=C(/N)N1CCCC1 > 100 µM (inactive)
N=C(N)NS(=O)(=O)c1ccc(NC(=O)c2cccc3c(Nc4ccc(S(N)(=O)=O)cc4)c4ccccc4nc23)cc1 > 100 µM (inactive)
O=C(N/N=C\c1cccc(O)c1)c1ccncc1 > 100 µM (inactive)

Now, please, on to the next compound.
-- ask Look up GI50 for this compound: CCOC(=O)C1=C(N)N(c2ccccc2)/C(=C(/C#N)c2nc3ccccc3[nH]2)S1
-- reply > 100 µM (inactive)
